Reported Hyaluronidase activity Mean(%) values for a set of compounds
# subjectOfTest: bovine testis hyaluronidase (Bos taurus)
# Construct: purchased Sigma–Aldrich GmbH (Steinheim, Germany); host or cells: bovine testis
# Sequence (Q2YDK3 36-553): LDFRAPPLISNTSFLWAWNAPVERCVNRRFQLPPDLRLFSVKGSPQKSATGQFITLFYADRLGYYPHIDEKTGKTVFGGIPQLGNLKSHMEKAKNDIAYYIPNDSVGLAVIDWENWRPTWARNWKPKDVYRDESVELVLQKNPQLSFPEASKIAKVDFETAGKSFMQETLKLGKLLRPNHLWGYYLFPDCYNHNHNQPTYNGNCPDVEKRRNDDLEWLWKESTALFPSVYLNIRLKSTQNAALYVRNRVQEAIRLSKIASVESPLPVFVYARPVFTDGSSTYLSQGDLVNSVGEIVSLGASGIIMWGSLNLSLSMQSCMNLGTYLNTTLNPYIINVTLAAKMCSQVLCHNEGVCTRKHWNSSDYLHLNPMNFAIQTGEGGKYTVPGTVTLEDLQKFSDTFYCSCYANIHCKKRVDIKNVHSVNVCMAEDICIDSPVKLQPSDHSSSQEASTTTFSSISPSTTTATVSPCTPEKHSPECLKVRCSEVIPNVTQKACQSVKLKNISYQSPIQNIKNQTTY
# protocolNotes: Hyaluronidase activity, USP turbidimetric method modified
# Type: biochemical
# runParameters: 1 μM; % of 100% active enzyme control

[[record]]
compound = "O=C(OC1COC(=O)c2cc(O)c(O)c(O)c2-c2c(cc(O)c(O)c2O)C(=O)OC1C1OC(=O)c2cc(O)c(O)c(O)c2-c2c(O)c(O)c(O)c3c2C(=O)OC1C3O)c1cc(O)c(O)c(O)c1Oc1cc2c(c(O)c1O)-c1c(cc(O)c(O)c1O)C(=O)OCC1OC(=O)c3cc(O)c(O)c(O)c3-c3c(O)c(O)c(O)c4c3C(=O)OC(C1OC2=O)C1OC(=O)c2c-4c(O)c(O)c(O)c2C1O (centres unmarked) [SA, salicarinin A]"
measurementlabel = "Hyaluronidase activity Mean(%)"
measuredvalue = "75,50%"

[[record]]
compound = "O=C1OC[C@H]2OC(=O)c3cc(O)c(O)c(O)c3-c3c(O)c(O)c(O)c4c3C(=O)O[C@H]([C@H]3OC(=O)c5c-4c(O)c(O)c(O)c5[C@H]3O)[C@@H]2OC(=O)c2cc(O)c(O)c(O)c2-c2c1cc(O)c(O)c2O"
measurementlabel = "Hyaluronidase activity Mean(%)"
measuredvalue = "87,07%"

[[record]]
compound = "O=C(OC1COC(=O)c2cc(O)c(O)c(O)c2-c2c(cc(O)c(O)c2O)C(=O)OC1C1OC(=O)c2cc(O)c(O)c(O)c2-c2c(O)c(O)c(O)c3c2C(=O)OC1C3O)c1cc(O)c(O)c(O)c1Oc1cc2c(c(O)c1O)-c1c(cc(O)c(O)c1O)C(=O)OCC1OC(=O)c3cc(O)c(O)c(O)c3-c3c(O)c(O)c(O)c4c3C(=O)OC(C1OC2=O)C1OC(=O)c2c-4c(O)c(O)c(O)c2C1O (centres unmarked) [SB, salicarinin B]"
measurementlabel = "Hyaluronidase activity Mean(%)"
measuredvalue = "70,96%"


Hyaluronidase activity Mean(%) for O=C(OC1COC(=O)c2cc(O)c(O)c(O)c2-c2c(cc(O)c(O)c2O)C(=O)OC1C1OC(=O)c2cc(O)c(O)c(O)c2-c2c(O)c(O)c(O)c3c2C(=O)OC1C3O)c1cc(O)c(O)c(O)c1Oc1cc2c(c(O)c1O)-c1c(cc(O)c(O)c1O)C(=O)OCC1OC(=O)c3cc(O)c(O)c(O)c3-c3c(O)c(O)c(O)c4c3C(=O)OC(C1OC2=O)C1OC(=O)c2c-4c(O)c(O)c(O)c2C1O (centres unmarked) [SC, salicarinin C] ?
81,82%

Next entry: O=C1OCC2OC(=O)c3cc(O)c(O)c(O)c3-c3c(O)c(O)c(O)c4c3C(=O)OC(C2OC(=O)c2cc(O)c(O)c(O)c2-c2c1cc(O)c(O)c2O)C1OC(=O)c2c-4c(O)c(O)c(O)c2C1O (centres unmarked)
88,10%

====

# System: MPO
# protocolNotes: MPO release from cytochalasin A/f-MLP-stimulated neutrophils (TMB substrate)
# Format: cell-based, human
# runParameters: 20 μM; cytochalasin A/f-MLP; % of stimulated control
measurementLabel: MPO release Mean(%)

Study these solved cases before continuing.
[[record]]
compound = "O=C1OCC2OC(=O)c3cc(O)c(O)c(O)c3-c3c(O)c(O)c(O)c4c3C(=O)OC(C2OC(=O)c2cc(O)c(O)c(O)c2-c2c1cc(O)c(O)c2O)C1OC(=O)c2c-4c(O)c(O)c(O)c2C1O (stereo not drawn)"
measuredvalue = "41,17%"

[[record]]
compound = "O=C(OC1COC(=O)c2cc(O)c(O)c(O)c2-c2c(cc(O)c(O)c2O)C(=O)OC1C1OC(=O)c2cc(O)c(O)c(O)c2-c2c(O)c(O)c(O)c3c2C(=O)OC1C3O)c1cc(O)c(O)c(O)c1Oc1cc2c(c(O)c1O)-c1c(cc(O)c(O)c1O)C(=O)OCC1OC(=O)c3cc(O)c(O)c(O)c3-c3c(O)c(O)c(O)c4c3C(=O)OC(C1OC2=O)C1OC(=O)c2c-4c(O)c(O)c(O)c2C1O (stereo not drawn) [SB, salicarinin B]"
measuredvalue = "2,93%"

[[record]]
compound = "O=C(OC1COC(=O)c2cc(O)c(O)c(O)c2-c2c(cc(O)c(O)c2O)C(=O)OC1C1OC(=O)c2cc(O)c(O)c(O)c2-c2c(O)c(O)c(O)c3c2C(=O)OC1C3O)c1cc(O)c(O)c(O)c1Oc1cc2c(c(O)c1O)-c1c(cc(O)c(O)c1O)C(=O)OCC1OC(=O)c3cc(O)c(O)c(O)c3-c3c(O)c(O)c(O)c4c3C(=O)OC(C1OC2=O)C1OC(=O)c2c-4c(O)c(O)c(O)c2C1O (stereo not drawn) [SA, salicarinin A]"
measuredvalue = "1,52%"

[[record]]
compound = "O=C(O)c1cc(O)c(O)c(O)c1 [gal, Gallic acid, reference compound]"
measuredvalue = "18,88%"

[[record]]
compound = "O=C(OC1COC(=O)c2cc(O)c(O)c(O)c2-c2c(cc(O)c(O)c2O)C(=O)OC1C1OC(=O)c2cc(O)c(O)c(O)c2-c2c(O)c(O)c(O)c3c2C(=O)OC1C3O)c1cc(O)c(O)c(O)c1Oc1cc2c(c(O)c1O)-c1c(cc(O)c(O)c1O)C(=O)OCC1OC(=O)c3cc(O)c(O)c(O)c3-c3c(O)c(O)c(O)c4c3C(=O)OC(C1OC2=O)C1OC(=O)c2c-4c(O)c(O)c(O)c2C1O (stereo not drawn) [SC, salicarinin C]"
measuredvalue = "5,95%"


Shifting focus to the compound that follows.
Requested field: MPO release Mean(%). Item: O=C1OC[C@H]2OC(=O)c3cc(O)c(O)c(O)c3-c3c(O)c(O)c(O)c4c3C(=O)O[C@H]([C@H]3OC(=O)c5c-4c(O)c(O)c(O)c5[C@H]3O)[C@@H]2OC(=O)c2cc(O)c(O)c(O)c2-c2c1cc(O)c(O)c2O
29,85%

====

# subjectOfTest: bovine testis hyaluronidase (Bos taurus)
# Construct: purchased Sigma–Aldrich GmbH (Steinheim, Germany); host or cells: bovine testis
# protocolNotes: Hyaluronidase activity, USP turbidimetric method modified
# Format: biochemical
# runParameters: 20 μM; % of 100% active enzyme control
# Method: The […] flowering herb was collected from its natural habitat in Umer in the Świętokrzyskie region (Poland) in July 2011. […] Isolated ellagitannins were of >95 % purity (determined by the HPLC-DAD-CAD method). […] The influence of extract and ellagitannins on hyaluronidase activity was measured using the USP turbidimetric method modified by Piwowarski et al. […]
Recorded Hyaluronidase activity Mean(%) values for a group of molecules are listed next.

The examples below pair each entry with its known result.
[[record]]
molecule = "O=C(OC1COC(=O)c2cc(O)c(O)c(O)c2-c2c(cc(O)c(O)c2O)C(=O)OC1C1OC(=O)c2cc(O)c(O)c(O)c2-c2c(O)c(O)c(O)c3c2C(=O)OC1C3O)c1cc(O)c(O)c(O)c1Oc1cc2c(c(O)c1O)-c1c(cc(O)c(O)c1O)C(=O)OCC1OC(=O)c3cc(O)c(O)c(O)c3-c3c(O)c(O)c(O)c4c3C(=O)OC(C1OC2=O)C1OC(=O)c2c-4c(O)c(O)c(O)c2C1O (centres unmarked) [SC, salicarinin C]"
measurementlabel = "Hyaluronidase activity Mean(%)"
measuredvalue = "0,50%"

[[record]]
molecule = "O=C(OC1COC(=O)c2cc(O)c(O)c(O)c2-c2c(cc(O)c(O)c2O)C(=O)OC1C1OC(=O)c2cc(O)c(O)c(O)c2-c2c(O)c(O)c(O)c3c2C(=O)OC1C3O)c1cc(O)c(O)c(O)c1Oc1cc2c(c(O)c1O)-c1c(cc(O)c(O)c1O)C(=O)OCC1OC(=O)c3cc(O)c(O)c(O)c3-c3c(O)c(O)c(O)c4c3C(=O)OC(C1OC2=O)C1OC(=O)c2c-4c(O)c(O)c(O)c2C1O (centres unmarked) [SA, salicarinin A]"
measurementlabel = "Hyaluronidase activity Mean(%)"
measuredvalue = "1,13%"

[[record]]
molecule = "O=C1OCC2OC(=O)c3cc(O)c(O)c(O)c3-c3c(O)c(O)c(O)c4c3C(=O)OC(C2OC(=O)c2cc(O)c(O)c(O)c2-c2c1cc(O)c(O)c2O)C1OC(=O)c2c-4c(O)c(O)c(O)c2C1O (centres unmarked)"
measurementlabel = "Hyaluronidase activity Mean(%)"
measuredvalue = "5,10%"

[[record]]
molecule = "O=C(OC1COC(=O)c2cc(O)c(O)c(O)c2-c2c(cc(O)c(O)c2O)C(=O)OC1C1OC(=O)c2cc(O)c(O)c(O)c2-c2c(O)c(O)c(O)c3c2C(=O)OC1C3O)c1cc(O)c(O)c(O)c1Oc1cc2c(c(O)c1O)-c1c(cc(O)c(O)c1O)C(=O)OCC1OC(=O)c3cc(O)c(O)c(O)c3-c3c(O)c(O)c(O)c4c3C(=O)OC(C1OC2=O)C1OC(=O)c2c-4c(O)c(O)c(O)c2C1O (centres unmarked) [SB, salicarinin B]"
measurementlabel = "Hyaluronidase activity Mean(%)"
measuredvalue = "0,50%"


Let us move to another entry and its Hyaluronidase activity Mean(%).
Item under review: O=C1OC[C@H]2OC(=O)c3cc(O)c(O)c(O)c3-c3c(O)c(O)c(O)c4c3C(=O)O[C@H]([C@H]3OC(=O)c5c-4c(O)c(O)c(O)c5[C@H]3O)[C@@H]2OC(=O)c2cc(O)c(O)c(O)c2-c2c1cc(O)c(O)c2O . Reported Hyaluronidase activity Mean(%)?
3,13%
